# Method Notes: qHTS of pediatric cancer cell lines to identify multiple opportunities for drug repurposing: Primary screen for Rh18 cells (AID 1347102); also: nearly all actives have a fitted effect of over 65% in size
# Experimental Setup: Rh18 rhabdomyosarcoma viability, CellTiter-Glo luminescence, 48 h; series mostly up to 46 µM
Results filed as inconclusive are left out. The source made the active and inactive calls. Calls follow the shape of the dose curve; as a rule, active = well fitted cell-killing curve with a large enough effect; inconclusive = small, poorly fitted or top-dose-only effect; inactive = flat fitted curve, though single readings scatter.
Metric: Potency

| Compound | Value Reported |
| --- | --- |
| CCN(C(C)=O)c1cccc(-c2ccnc3c(C#N)cnn23)c1 | inactive |
| C[C@@H]1[C@@H](C(=O)C[C@H]2O[C@@H]3O[C@]4(C)CC[C@@H]5[C@H](C)CC[C@@H]([C@H]2C)[C@@]35OO4)O[C@@H]2O[C@]3(C)CC[C@H]4[C@H](C)CC[C@@H]1[C@@]24OO3 | inactive |
| CC(C)(N)Cc1ccc(Cl)cc1 | inactive |
| CCC(=O)C(CC(C)N(C)C)(c1ccccc1)c1ccccc1 (stereo not drawn) | inactive |
| C=C1C[C@@H]2[C@H](CC[C@]3(C)C(=O)CC[C@@H]23)[C@@]2(C)C=CC(=O)C=C12 | inactive |
| N[C@@H]1C[C@H]1c1ccccc1 | inactive |
| Oc1ccccc1-c1ccccc1 | inactive |
| CC[C@@H](CO)NC(=O)[C@@H]1C=C2c3cccc4[nH]cc(c34)C[C@H]2N(C)C1 | inactive |
| C=CCN1CC[C@]23c4c5ccc(O)c4O[C@H]2C(=O)CC[C@@]3(O)[C@H]1C5 | inactive |
| CC(C)=CC1C(C(=O)OCc2cccc(Oc3ccccc3)c2)C1(C)C (stereo not drawn) | inactive |

// Potency lookup, compound = c1ccc2c(c1)Nc1ccccc1S2 , result: inactive

Looking up Cn1cc(C2=C(c3cn(C4CCN(Cc5ccccn5)CC4)c4ccccc34)C(=O)NC2=O)c2ccccc21 , I see its Potency listed as inactive

The measured Potency associated with COc1ccc(C(=O)c2c(C)n(CCN3CCOCC3)c3ccccc23)cc1 reads inactive

// Potency lookup, compound = CCC(COC(=O)c1cc(OC)c(OC)c(OC)c1)(c1ccccc1)N(C)C (stereo not drawn) , result: inactive

Summary for this compound, COC[C@@H](NC(C)=O)C(=O)NCc1ccccc1 : Potency is inactive

Briefly, Potency measured for Cc1cc(SCc2sc(-c3ccc(C(F)(F)F)c(F)c3)nc2C)ccc1OCC(=O)O : inactive
